Assay: chemical genetic growth profiling, strain panel (AID 1159580);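 note: tested at 20 µM; growth read once vehicle control cultures reached saturation at 30 °C; 1 = growth at the plate median or of vehicle wells; lower values mean less growth of the strain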
Details: S. cerevisiae deletion strains, growth OD, locus YOR083W, strain WHI5, active compounds read low
About 2,000 (36%) of roughly 5,500 compounds were called active. Another 18% or so got no clear call; they are omitted. Some of the results follow.
parameter: normalized growth
Hey, just send me the number, nothing else.

Here's what some known entries look like.
[
  {
    "compound": "C[N+]1(C)C2CC(OC(=O)[C@@H](CO)c3ccccc3)CC1C1OC12 (stereo partly drawn)",
    "observedMeasurement": 0.962
  },
  {
    "compound": "C#CCCCCCCCCCCCC(O)CC(O)CO (stereo not drawn)",
    "observedMeasurement": 0.95
  },
  {
    "compound": "O=C(O)CN1C(=O)c2cccc3cccc(c23)C1=O",
    "observedMeasurement": 0.967
  }
]

Any idea what normalized growth was measured for "CC[N+](CC)(CC)CCOc1cccc(OCC[N+](CC)(CC)CC)c1OCC[N+](CC)(CC)CC" ? 1.04

C#CCCCCCCCCCCCC(=O)CC(O)COC(C)=O (stereo not drawn) ? 0.967

"COc1c(OC)c2occc2c2oc(=O)ccc12" ? 0.908

"CC(C)NNC(=O)c1ccncc1" ? 0.998

"CC(=O)OCC[C@H](C)CCC=C(C)C" ? 0.972

----------
In this section, each of the compounds is paired with its reported normalized growth.
Assay: chemical genetic growth profiling, strain panel (AID 1159580)
Details: S. cerevisiae deletion strains, growth OD, locus YMR223W, strain ubp8, active compounds read low
The whole screen tested about 5,500 compounds, of which about 2,000 (36%) were called active. Not shown: some 18% with an inconclusive outcome. The list shows a part of the results.
Hey, just send me the number, nothing else.

Here's what some known entries look like.
[
  {
    "compound": "NC(N)=NS(=O)(=O)c1ccc(N)cc1",
    "parameter": "normalized growth",
    "observedMeasurement": 0.996
  },
  {
    "compound": "Cc1cc(-c2ccccc2)nnc1NCCN1CCOCC1",
    "parameter": "normalized growth",
    "observedMeasurement": 1.02
  },
  {
    "compound": "CCCCOC(=O)c1ccccc1C(=O)OCCCC",
    "parameter": "normalized growth",
    "observedMeasurement": 0.975
  }
]

Any idea what normalized growth was measured for CC(=O)OC1CCC2(C)C(=CC=C3C2CCC2(C)C3CCC2C(C)/C=C/C(C)C(C)C)C1(C)C (stereo not drawn) ? 1

"Cc1c(Cl)cccc1Nc1ccccc1C(=O)O" ? 0.795

"CCN(CC)C(=O)c1cccc(C)c1" ? 1

C=CCCCCCCCCCCCC(O)CC(O)COC(C)=O (stereo not drawn) (tested in a mixture with another compound) ? 0.928

CC1(C)OC(=O)C=CC2(C)C1CC(O)C1(C)C2CCC2(C)C(c3ccoc3)OC(=O)C3OC321 (stereo not drawn) ? 1.01

"CCCCN(CCCC)CCCOC(=O)c1ccc(N)cc1" ? 1.01

"CCCCNc1ccc(C(=O)OCCN(C)C)cc1" ? 1.01

"COc1cc(-c2coc3cc(OC)c(OC)c(OC)c3c2=O)cc(OC)c1OC" ? 0.998

CC(C)C(C)/C=C/C(C)[C@H]1CCC2C3=CCC4CC(=O)CC[C@]4(C)C3CC[C@@]21C (stereo partly drawn) ? 0.986

"CC(=O)OCC(COC(C)=O)OC(C)=O" ? 1

"O=C1NC(=O)C(=O)C(=O)N1" ? 1.01

CC(C)C(C)/C=C/C(C)C1CCC2C3=CC=C4CC(O)CCC4(C)C3CCC21C (stereo not drawn) ? 0.941

"COc1c2ccoc2c(OC)c2oc(=O)ccc12" ? 0.974

"CCCCOC(=O)c1ccccc1C(=O)OCc1ccccc1" ? 0.957

"CCNC(=O)CC[C@H](N)C(=O)O" ? 1.01

----------
In this section, each of the molecules is paired with its reported normalized growth.
Assay: chemical genetic growth profiling, strain panel (AID 1159580)
Conditions: S. cerevisiae deletion strains, growth OD, locus YFL029C, strain CAK1, active compounds read low
Out of some 5,500 compounds screened, about 2,000 (36%) were called active. Roughly 18% stayed inconclusive and do not appear here. Some of the results follow.
Hey, just send me the number, nothing else.

Any idea what normalized growth was measured for "O=C(Nc1ccc(Cl)cc1)OCCSc1nc2ccccc2s1" ? 0.975

"O=C(Nc1ccc(OC(F)(F)F)cc1)OC1CN(C(c2ccccc2)c2ccccc2)C1" ? 0.992

"N#CC(C#N)=Cc1ccc(-c2ccccc2C(F)(F)F)o1" ? 0.945

"OC(=Cc1nc2ccccc2nc1C=C(O)c1ccc(Cl)cc1)c1ccc(Cl)cc1" ? 0.976

"Cc1onc(-c2c(F)cccc2Cl)c1C(=O)NNc1cc(Cl)cc(Cl)c1" ? 0.977

"Cc1c(-c2ccnn2C(=O)c2ccco2)cnn1-c1ccccc1" ? 0.954

"Cc1ccc(NC(=O)c2ccccc2N=Cc2cc(Cl)cc(Cl)c2O)c(N=Cc2cc(Cl)cc(Cl)c2O)c1" ? 0.909

----------
Assay: chemical genetic growth profiling, strain panel (AID 1159580);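 note: tested at 20 µM; growth read once vehicle control cultures reached saturation at 30 °C; 1 = growth at the plate median or of vehicle wells; lower values mean less growth of the strain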
Details: S. cerevisiae deletion strains, growth OD, locus YKL085W, strain MDH1 (second series)
Hit rate of the full screen: of about 5,500 compounds, about 2,000 (36%) were called active. Roughly 18% stayed inconclusive and do not appear here. Cut-off read from the data, not from the text of the source: active = normalized growth mostly below about 0.91 (no sharp cut-off); inconclusive = no clear call, values can overlap the other calls; inactive = mostly above about 0.92. Some of the results follow.
The reply should be one of these categories: active, inactive

Please review the following examples before continuing.
[
  {
    "compound": "C=C1CCC2C(CC2(C)C)C(=O)CCC1O (stereo unspecified)",
    "qualitativeLabel": "inactive"
  },
  {
    "compound": "NC(=O)c1cccc(N)c1",
    "qualitativeLabel": "inactive"
  },
  {
    "compound": "COc1cc2c(cc1OC)C1Cc3ccc(OC)c(OC)c3CN1CC2 (stereo unspecified)",
    "qualitativeLabel": "inactive"
  }
]

// outcome(item) with item = CC(C)C(C)/C=C/C(C)C1CCC2C3=CC=C4CC(O)CCC4(C)C3CCC21C (stereo unspecified) inactive

CC(C)C(C)/C=C/C(C)[C@H]1CCC2C3=CCC4CC(=O)CC[C@]4(C)C3CC[C@@]21C (stereo partly specified) ? inactive

"CCCCOC(=O)c1ccccc1C(=O)OCCCC" ? inactive

----------
In this section, each of the compounds is paired with its reported normalized growth.
Assay: chemical genetic growth profiling, strain panel (AID 1159580);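 note: tested at 20 µM; growth read once vehicle control cultures reached saturation at 30 °C; 1 = growth at the plate median or of vehicle wells; lower values mean less growth of the strain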
Conditions: S. cerevisiae deletion strains, growth OD, locus YDL134C, strain PPH21, active compounds read low
The campaign covered roughly 5,500 compounds. About 2,000 (36%) were called active. Roughly 18% stayed inconclusive and do not appear here. The list shows a part of the results.

Here's what some known entries look like.
[
  {
    "compound": "C#CCCCCCCCCCCCC(O)CC(O)COC(C)=O (stereo not drawn)",
    "normalized growth": "0.972 (inactive)"
  },
  {
    "compound": "O=C1OC(c2ccc(O)cc2)(c2ccc(O)cc2)c2ccccc21",
    "normalized growth": "0.989 (inactive)"
  },
  {
    "compound": "C#CCCCCCCCCCCCC(O)CC(O)CO (stereo not drawn)",
    "normalized growth": "0.995 (inactive)"
  },
  {
    "compound": "Clc1cccc(Cl)c1NC1=NCCN1",
    "normalized growth": "1.01 (inactive)"
  },
  {
    "compound": "CC1(C)C2(Cl)C(Cl)C(Cl)C(Cl)(C(Cl)Cl)C1(Cl)C2Cl (stereo not drawn)",
    "normalized growth": "0.981 (inactive)"
  },
  {
    "compound": "Oc1ccc(Cl)cc1Cc1cc(Cl)ccc1O",
    "normalized growth": "0.0596 (active)"
  }
]

Any idea what normalized growth was measured for "Oc1ccc(Cl)cc1" ? 0.975 (inactive)

C=CCCCCCCCCCCCC(O)CC(O)COC(C)=O (stereo not drawn) (tested in a mixture with another compound) ? 0.892 (inactive)

----------
In this section, each of the molecules is paired with its reported normalized growth.
Assay: chemical genetic growth profiling, strain panel (AID 1159580);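 note: tested at 20 µM; growth read once vehicle control cultures reached saturation at 30 °C; 1 = growth at the plate median or of vehicle wells; lower values mean less growth of the strain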
Details: S. cerevisiae deletion strains, growth OD, locus YNL071W, strain lat1, active compounds read low
In all, about 5,500 compounds went through this assay and about 2,000 (36%) were called active. About 18% were inconclusive and are not listed. Some of the results follow.
Hey, just send me the number, nothing else.

Here's what some known entries look like.
[
  {
    "molecule": "Clc1cccc(Cl)c1NC1=NCCN1",
    "normalized growth": 0.993
  },
  {
    "molecule": "NC(N)=NS(=O)(=O)c1ccc(N)cc1",
    "normalized growth": 0.986
  }
]

Any idea what normalized growth was measured for "O=C(O)CN(CC(=O)O)Cc1cc2c(-c3ccccc3C(=O)O)c3cc(CN(CC(=O)O)CC(=O)O)c(=O)cc-3oc2cc1O" ? 0.973

O=C1CC2OCC=C3CN4CC[C@]56c7ccccc7N1C5[C@H]2[C@H]3CC46 (some centres undefined) ? 1.01

"CCN(CC)C(=O)c1cccc(C)c1" ? 1.02

C=CCSCC1Nc2cc(Cl)c(S(N)(=O)=O)cc2S(=O)(=O)N1 (centres undefined) ? 0.999

O=C1[C@H](CCC(O)c2ccc(F)cc2)[C@@H](c2ccc(O)cc2)N1c1ccc(F)cc1 (some centres undefined) ? 0.984

"OC(Cn1cncn1)(Cn1cncn1)c1ccc(F)cc1F" ? 1

"COC(=O)C1=CCCN(C)C1" ? 1.01

Hello, the source for this data is PubChem BioAssay AID1159580, in case you need it.
